Data origin: paper PMC9712689

targetEntity: T1, RlpA-Δ32, fluorescently labeled (P. aeruginosa PAO1, UniProt Q9X6V6 32-342, amine reactive RED-NHS dye)
T1 construct: source: E. coli BL21-star (DE3), purified (Ni-NTA), labelled with RED-NHS dye
T1 sequence: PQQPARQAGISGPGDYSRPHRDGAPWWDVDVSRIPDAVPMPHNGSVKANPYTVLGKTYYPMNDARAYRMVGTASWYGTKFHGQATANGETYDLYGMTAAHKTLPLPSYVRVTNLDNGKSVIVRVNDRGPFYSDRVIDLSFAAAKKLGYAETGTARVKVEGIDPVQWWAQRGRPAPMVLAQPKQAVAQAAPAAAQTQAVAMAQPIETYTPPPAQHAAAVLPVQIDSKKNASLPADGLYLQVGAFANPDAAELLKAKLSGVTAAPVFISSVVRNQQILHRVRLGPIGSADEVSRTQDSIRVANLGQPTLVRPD
assayProcedure: MST
testParameters: both partners purified
Entries and their Kd
Record the value in nM, omitting the unit from your answer.

PilA (natural protein, source: E. coli, purified (Ni-NTA or Strep-Tactin)) PQYQNYVARSEGASALATINPLKTTVEESLSRGIAGSKIKIGTTASTATETYVGVEPDANKLGVIAVAIEDSGAGDITFTFQTGTSSPKNATKVITLNRTADGVWACKSTQDPMFTPKGCDN; 240

Consider now this further binder.
Query: What value of Kd has been reported for the following binder? PBP7 (enzyme, P. aeruginosa PAO1, UniProt P72161 24-310, looked up) SPPPKAGLPLQQELASGSALVTDQNTGKVLYSRNPDLVVPIASITKLMTAMVVLDSKLPLDEVLPIAISETSEMRGVFSRVRVGSQISRRDMLLLALMSSENRAAASLAQNYPGGKNAFVKAMNAKAHALGMKNTRYVEPTGLSLHNVSTARDLTRLLVASRQYPLLSQWSTTPEKTVAFRHPNYTLGFRNTNHLINNKTWNIQLTKTGFTNEAGHCLVMRTTINRSPVNLVVLDAFGKYTHFADATRLRRWLETGQVTAIPAAAKAYRLQRDRERGLGQPVAQAVR
Reply: 430
